Biological target: I2B
Experiment: Receptor binding, I2B
The compounds listed here are annotated with their log10 Ki.
attribute_measured: log10 Ki (log10 of the value in µM)

>>> df
                                   compound  endpoint_result
0   Brc1c(NC2=NCCN2)ccc2c1NCCN2 [Example 9]             0.66
1     c1cc2c(cc1NC1=NCCN1)NCCN2 [Example 7]             1.00
2       Clc1cccc(Cl)c1NC1=NCCN1 [Example 2]             1.10
3  CC1CNc2c(ccc(NC3=NCCN3)c2Br)N1 (centres unmarked) [Example 10]             0.51
4   Brc1c(NC2=NCCN2)ccc2nccnc12 [Example 5]            -0.21
